EXPERIMENTAL_SYSTEM: recombinant CD73 (Homo sapiens, UniProt P21589)
Construct: purchased R&D Systems 5795-EN-010
Sequence (P21589 27-547 limits assumed): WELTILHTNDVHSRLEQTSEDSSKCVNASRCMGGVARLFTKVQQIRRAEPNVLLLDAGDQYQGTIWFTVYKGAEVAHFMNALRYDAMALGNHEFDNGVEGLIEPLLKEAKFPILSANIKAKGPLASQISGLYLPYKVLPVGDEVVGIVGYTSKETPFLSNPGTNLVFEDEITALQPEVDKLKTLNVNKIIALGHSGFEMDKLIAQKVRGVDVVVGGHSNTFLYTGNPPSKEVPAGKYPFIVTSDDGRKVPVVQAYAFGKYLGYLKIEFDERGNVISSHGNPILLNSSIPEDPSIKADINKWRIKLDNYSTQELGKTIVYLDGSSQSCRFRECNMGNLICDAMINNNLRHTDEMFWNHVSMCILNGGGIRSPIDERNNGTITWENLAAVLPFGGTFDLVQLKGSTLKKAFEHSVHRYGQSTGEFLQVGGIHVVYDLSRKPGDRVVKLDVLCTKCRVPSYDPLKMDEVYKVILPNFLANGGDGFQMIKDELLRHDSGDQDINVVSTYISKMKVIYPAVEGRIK
ASSAY_REMARKS: Assay 1: Inhibition of the CD73 Enzyme In Vitro
Type: biochemical
MEASUREMENT_PARAMETERS: soluble recombinant CD73 0.5 nM, AMP 50 μM, 30 minutes at room temperature, Malachite Green, absorbance at 630 nm; read-out: Assay 1 CD73 IC50
pIC50: −log10 of the molar value.
QUANTITY_NAME: pIC50

| COMPOUND | pIC50 |
| --- | --- |
| Nc1nc(Cl)nc2c1ncn2[C@@H]1O[C@H](CO[C@](Cc2ccc(C(=O)O)cc2)(C(=O)O)c2cscn2)[C@@H](O)[C@@H]1F (single isomer, unassigned) [Example 15] | 6.53 |

[a] Nc1nc(Cl)nc2c1ncn2[C@@H]1O[C@H](CO[C@@](Cc2ccc(-c3ccccc3C(=O)O)cc2)(C(=O)O)c2ccccc2)[C@@H](O)[C@H]1O (single isomer, unassigned) [Example 48]
[b] CS(=O)(=O)Nc1ccccc1-c1ccc(C[C@](OC[C@H]2O[C@@H](n3cnc4c(N)nc(Cl)nc43)[C@H](O)[C@@H]2O)(C(=O)O)c2cscn2)cc1 (single isomer, unassigned) [Example 42]
[c] Nc1nc(Cl)nc2c1ncn2[C@@H]1O[C@H](COC(Cc2ccccc2)(C(=O)O)c2cscn2)[C@@H](O)[C@H]1O (mixture of isomers) [Example 26]
[d] Nc1nc(Cl)nc2c1ncn2[C@@H]1O[C@H](CO[C@](Cc2ccc(-c3ccccc3CC(=O)O)cc2)(C(=O)O)c2cscn2)[C@@H](O)[C@H]1O (single isomer, unassigned) [Example 6]
# desc sort on pIC50 across 4 compounds List labels; respect the requested ordering.
d, c, b, a
